Test system: SK-MEL-5 melanoma
Assay: NCI-60 one-dose screen, 48 h
Details: 10 µM unless noted
The panel holds about 83,000 compounds, 20% with a hit somewhere; the sample as a whole holds those more often. The source made the active and inactive calls. The calls were made as follows: active = growth percent below 10; inactive = the rest.
Choose one outcome from this list and give only that: active, inactive

The examples below pair each entry with its known result.
COMPOUND | QUALITATIVE LABEL
Cc1nc(N)sc1-c1ccnc(Nc2ccc(N3CCOCC3)cc2)n1 | inactive
C[N+](C)(CCOC(c1ccccc1)c1ccccc1)CC(=O)OCc1ccccc1 | inactive
CCOC(=O)C1=C(C)N=C2Sc3cc(OC(F)(F)F)ccc3N2[C@H]1c1ccccn1 | inactive
Cn1ncc(Cl)c1-c1cc(C(=O)N[C@H](CN)Cc2ccc(F)c(F)c2)oc1Cl | active
Cc1cc(Nc2ncc(Cl)c(Nc3ccccc3S(=O)(=O)C(C)C)n2)c(OC(C)C)cc1C1CCNCC1 | active

# evaluate next
Ask: Tell me the assay call for COc1cc(-c2nc(C(=O)NCC(=O)O)nn2-c2ccc(Cl)cc2)cc(OC)c1OC please.
Result: inactive

====

Reported growth is given for each of the following molecules.
Tested on: TK-10 renal
Assay: NCI-60 one-dose screen, 48 h (100 = growth as untreated, 0 = no growth, -100 = all killed)
Details: 10 µM unless noted
The panel holds about 83,000 compounds, 20% with a hit somewhere; the sample as a whole holds those more often.
Give a bare numeral; the unit % is implied.

Ask: Give reported growth value for COc1cc2ncnc(Nc3ccc(F)c(Cl)c3)c2cc1NC(=O)/C=C/CN1CCCCC1
Result: -88.8

Ask: Give reported growth value for N[C@@H]1CCCN(c2c(/C=C3\SC(=O)NC3=O)cccc2-c2ccccc2)C1
Result: 78.6

Ask: Give reported growth value for CNC(=O)c1c(C)oc2cc(Oc3ncnc4cc(OC)c(OC)cc34)ccc12
Result: 98.9

Ask: Give reported growth value for OCCNC(=S)Nc1ccc(-c2nc(N3C[C@H]4CC[C@@H](C3)O4)c3cccn3n2)cc1
Result: -28.2

Ask: Give reported growth value for COC(=O)[C@H](C)NC(=O)[C@@H](OC)[C@@H]1Cc2cc3cc(OC4CC(OC5CC(O)C(O)C(C)O5)C(O)C(C)O4)c(C)c(O)c3c(O)c2C(=O)[C@H]1OC1CC(OC2CC(OC3CC(C)(O)C(O)C(C)O3)C(O)C(C)O2)C(O)C(C)O1 (stereo partly specified)
Result: 13.1

Ask: Give reported growth value for COC(=O)[C@H](Cc1ccc(O)cc1)NC(=O)[C@@H](OC)[C@@H]1Cc2cc3cc(OC4CC(OC5CC(O)C(O)C(C)O5)C(O)C(C)O4)c(C)c(O)c3c(O)c2C(=O)[C@H]1OC1CC(OC2CC(OC3CC(C)(O)C(O)C(C)O3)C(O)C(C)O2)C(O)C(C)O1 (stereo partly specified)
Result: 23.5

====

System: MCF7 breast
Assay: NCI-60 one-dose screen, 48 h (100 = growth as untreated, 0 = no growth, -100 = all killed)
Conditions: 10 µM unless noted
Compounds without any hit were thinned out: in the full panel of roughly 83,000, 20% have a hit.
Reported growth is given for each of the following compounds.
Give a bare numeral; the unit % is implied.

COMPOUND | SUBJECT OF TEST | REPORTED ENDPOINT | MEASURED VALUE
COc1ccc2c(CCCCC(c3ccccc3)c3ccccc3)c3[n+](cc2c1OC)CCc1cc2c(cc1-3)OCO2 | MCF7 breast | growth | -40.6
CO[C@H](C(=O)N[C@@H](CCCCNC(=O)OCc1ccccc1)C(=O)OC(C)(C)C)[C@@H]1Cc2cc3cc(OC4CC(OC5CC(O)C(O)C(C)O5)C(O)C(C)O4)c(C)c(O)c3c(O)c2C(=O)[C@H]1OC1CC(OC2CC(OC3CC(C)(O)C(O)C(C)O3)C(O)C(C)O2)C(O)C(C)O1 (stereo partly drawn) | MCF7 breast | growth | 3.56

Next:
Ask: Give reported growth value for CN1CCN(c2nc(C3=C(c4c[nH]c5ccccc45)C(=O)NC3=O)c3ccccc3n2)CC1
Result: 95.1

====

Reported growth is given for each of the following compounds.
Test system: TK-10 renal
Experiment: NCI-60 one-dose screen, 48 h (100 = growth as untreated, 0 = no growth, -100 = all killed)
Settings: 10 µM unless noted
This is part of a sample that, as a whole, favours compounds with a hit. Of some 83,000 tested, about 20% had one in any assay.
Give a bare numeral; the unit % is implied.

Answered examples (5):
COMPOUND | growth, %
COC(=O)[C@]12CC[C@@H](C)[C@H](C)[C@@H]1C1=CC[C@@H]3[C@@]4(C)C(C#N)=CC(C)=C4CC[C@@]3(C)[C@]1(C)CC2 | 99.2
Nc1cc(C(F)(F)F)c(-c2cc(N3CCOCC3)nc(N3CCOCC3)n2)cn1 | -35.4
C=CC(=O)Nc1cc(Nc2nccc(-c3cn(C)c4ccccc34)n2)c(OC)cc1N(C)CCN(C)C | -17.1
CN1CC[C@H](c2c(O)cc(O)c3c(=O)cc(-c4ccccc4Cl)oc23)[C@H](O)C1 | -0.739
CC1=CC2c3oc(-c4ccccc4)c(C(=O)c4ccccc4)c3CNC2C=C1 (configuration not stated) | 96

Ask: Give reported growth value for O=C(Cn1c(=O)ccn(CCCCCCCCOc2ccc(Br)cc2)c1=O)Nc1ccc(Oc2ccc(Cl)cc2)cc1
Result: 69.6

Ask: Give reported growth value for Nc1c(C(=O)c2ccccc2)sc2nc(-c3cccs3)ccc12
Result: 56.7

====

Reported growth is given for each of the following molecules.
Tested on: SN12C renal
Experiment: NCI-60 one-dose screen, 48 h (100 = growth as untreated, 0 = no growth, -100 = all killed)
Settings: 10 µM unless noted
The panel holds about 83,000 compounds, 20% with a hit somewhere; the sample as a whole holds those more often.
Give a bare numeral; the unit % is implied.

MOLECULE | SUBJECT OF TEST | UNIT TEXT | growth
COc1cc(N2CCC(N(C)C)CC2)ccc1Nc1ncc(Cl)c(Nc2ccccc2P(C)(C)=O)n1 | SN12C renal | % | 1.55
COc1ccc(C2CC(=O)c3c(O)c(OC)c(OC)c(OC)c3O2)c(O)c1 (stereo not given) | SN12C renal | % | 47.4
O=C(Nc1cn[nH]c1-c1nc2ccc(CN3CCOCC3)cc2[nH]1)NC1CC1 | SN12C renal | % | 17
CCN(CCCOc1ccc2c(Nc3cc(CC(=O)Nc4cccc(F)c4)[nH]n3)ncnc2c1)CCOP(=O)(O)O | SN12C renal | % | 79

Next:
Ask: Give reported growth value for Cc1sc2c(c1C)c(=O)nc1c(-c3nc(-c4ccccc4)cs3)n[nH]n12
Result: 100

====

Test system: UO-31 renal
Assay: NCI-60 one-dose screen, 48 h
Settings: 10 µM unless noted
Method: Growth inhibition of the UO-31 human tumor cell line is measured as a screen for anti-cancer activity. Cells are grown in 96 well plates and exposed to the test compound for 48 hours. Compounds are tested at a single concentration, which is 10^-5 M for most compounds. The reported endpoint is percent growth (GI% or GIPRCNT), where numbers from 0 - 100% represent growth inhibition, and numbers from -100% - 0 represent cell death. For example, a value of 40 represents 60% growth inhibition. […]
About 83,000 compounds went through this panel and 20% of them were active in at least one assay; those are over-represented in the sample as a whole. Active and inactive are the calls of the source. The calls were made as follows: active = growth percent below 10; inactive = the rest.
Choose one outcome from this list and give only that: label 1 for active, label 0 for inactive

SMILES DATA | SUBJECT OF TEST | QUALITATIVE LABEL
Brc1ccc([I+]c2ccc(Br)cc2)cc1 | UO-31 renal | label 0

Ask: Tell me the assay call for Cc1c(Cn2c(C)nc3c(C(=O)O)cc(N4CCOCC4)cc32)cccc1C(F)(F)F please.
Result: label 0

Ask: Tell me the assay call for Clc1ccc(/C=C/c2cc(N3CCOCC3)c3cc(Cl)c(Cl)cc3n2)cc1 please.
Result: label 0

Ask: Tell me the assay call for CCN(CCO)CCCOc1ccc2c(Nc3cc(CC(=O)Nc4cccc(F)c4)[nH]n3)ncnc2c1 please.
Result: label 0

Ask: Tell me the assay call for COc1ccc(-c2ccc3ncc4c(c3c2)n(-c2ccc(N3CCNCC3)c(C(F)(F)F)c2)c(=O)n4C)cn1 please.
Result: label 1

====

Test system: SF-268 CNS
Assay: NCI-60 one-dose screen, 48 h
Settings: 10 µM unless noted
The panel holds about 83,000 compounds, 20% with a hit somewhere; the sample as a whole holds those more often. The source made the active and inactive calls. How the source made its calls: active means growth percent below 10; inactive means the rest.
Choose one outcome from this list and give only that: active, inactive

Ask: Tell me the assay call for NC(=O)N1N=C(c2ccc(Cl)cc2)CC1c1cn(-c2ccccc2)nc1-c1ccc(Cl)cc1 (stereo not given) please.
Result: inactive

Ask: Tell me the assay call for CCN1CCN(Cc2ccc(NC(=O)Nc3nc(-c4cc(OC)c(OC)c(OC)c4)cs3)cc2C(F)(F)F)CC1 please.
Result: inactive

Ask: Tell me the assay call for CC(N)C(Cc1ccc(Cl)cc1)c1ccc(Cl)cc1 (stereo not given) please.
Result: inactive

Ask: Tell me the assay call for Cc1ccc(-[n+]2c3cc(N)c(C)cc3nc3cc(C)c(Nc4ccccc4)cc32)cc1 please.
Result: active

Ask: Tell me the assay call for Cc1cc(Nc2cc(N3CCN(C)CC3)nc(/C=C/c3ccccc3)n2)n[nH]1 please.
Result: active

Ask: Tell me the assay call for O=C(NCCO)Nc1ccc(-c2nc(N3CCOCC3)c3cccn3n2)cc1 please.
Result: inactive
